protocol: in vivo
measurement.parameters: mouse, in vivo, ip, 0.234 mg/kg
Protocol: The biological effects of methylglyoxal maleimide ("A") and methylglyoxal glutaconic imide ("B") were determined by tests on normal (non-tumorous) and subcutaneous Sarcoma-180 tumor-bearing mice. […] The compounds were administered by intraperitoneal route and the values were calculated by standard methods (Goldin A., in Meth.Can.Res. 4, p. 193, 1968). A thirty-day survival test was carried out with normal mice to determine any possible delayed toxicity. […]
quantity: mortality at 240 h (%)
All answers are understood in %, so give the number only.

According to the records, this compound CC(=O)C(O)N1C(=O)C=CC1=O (stereo not shown) [Methylglyoxal-maleimide] displays mortality at 240 h of 0
